# Population Membrane Permeable-Phenotype (%) listing for each entry below
system: HEK-293T; assay: Multiplex assay against HEK293T; type: toxicity, cell-based; details: human, 24 h, 1 µM, compound concentration 1 uM, replicate 1
Property: Population Membrane Permeable-Phenotype (%)

molecule="O=C(NCCN1CCC(n2c(=O)[nH]c3cc(Cl)ccc32)CC1)c1ccc(F)cc1 [HALOPEMIDE]" value_reported=1
molecule="Br.CS(=O)(=O)Nc1c(O)ccc2c1CCCC2C1=NCCN1 (stereo not drawn)" value_reported=1
molecule=CC(C)COc1ccc(CNC(=O)N(Cc2ccc(F)cc2)C2CCN(C)CC2)cc1 value_reported=2

====

test system: HEK-293T; assay: Multiplex assay against HEK293T; format: toxicity, cell-based; settings: human, 24 h, 10 µM, compound concentration 10 uM, replicate 2
Classify: YES when Population Hoechst High Intensity Objects (%) is strictly less than 10%; NO when Population Hoechst High Intensity Objects (%) is not.

compound="Cl.N=C(N)NC(=O)Cc1c(Cl)cccc1Cl [GUANFACINE HYDROCHLORIDE]" tested_target=HEK-293T assigned_category=YES
compound=CCCCC(=O)N(Cc1ccc(-c2ccccc2-c2nnn[nH]2)cc1)[C@H](C(=O)O)C(C)C tested_target=HEK-293T assigned_category=YES
compound=CCc1cc2cc(NS(=O)(=O)c3ccc(C#N)cc3)ccc2n(CC)c1=O tested_target=HEK-293T assigned_category=NO
compound=CC(=O)Nc1cccc2c1c(Sc1ccc(Cl)cc1)c(C)n2CC(=O)O tested_target=HEK-293T assigned_category=NO
compound=CC[C@@H](C)Nc1nc(C)nc2c(-c3ccc(OC)nc3C)c(C)nn12 tested_target=HEK-293T assigned_category=NO
compound=CN(C)C(=O)Cn1cc(-c2ccc(-c3cncc4ccccc34)cc2)cn1 tested_target=HEK-293T assigned_category=NO
compound=N#Cc1cc(F)cc(-c2nc(-c3ccc(F)cn3)no2)c1 tested_target=HEK-293T assigned_category=YES
compound=N#Cc1c(Oc2cccc(OS(=O)(=O)CCCC(F)(F)F)c2)cccc1C(F)(F)F tested_target=HEK-293T assigned_category=NO
compound=O=C1[C@H](Cc2ccc(O)cc2)N2C(=O)CCN(C(=O)NCc3ccccc3)[C@H]2CN1Cc1cccc2ccccc12 tested_target=HEK-293T assigned_category=NO
compound=Cc1onc(-c2ccccc2Cl)c1C(=O)N(C)c1ccc(Cl)cc1 tested_target=HEK-293T assigned_category=YES
compound=O=C(CCCc1ccccc1)Nc1nc2ccccc2c(=O)s1 tested_target=HEK-293T assigned_category=NO
compound=CN[C@@H](C)C(=O)N[C@H](C(=O)N1CCC[C@H]1C(=O)Nc1snnc1-c1ccccc1)C1CCCCC1 tested_target=HEK-293T assigned_category=NO
